Molecular target: RSV F on recombinant mKate-RSV A2 virus (Respiratory syncytial virus A2, UniProt P03420 26-574)
Assay: cell-based or functional assay
Please respond with y when measured Neut IC50 (ug/ml) subtype A is strictly beneath 0.1 µg/mL, and with n in all other cases.

| binder | label.value |
| --- | --- |
| ADI-21078 (antibody, V domains shown) VH: EVQLVESGGGLVKPGGSLRLSCAASGFRLSDYYMSWIRQAPGKGLEWISDISGGSTYTNYADSVKGRLTISRDNAQNSLYLQMNSLRAEDTAVYYCARWGSGGPDAFHFWGQGTTVTVSS VL: QSVLTQPPSVSGVPGQRVTISCTGSRSNIGAGYDVHWYRQLPGTAPKLLIYGNSNRPSGVPDRFSGSKSGTSASLAITGLQADDEADYYCQSYDSSLSGSVIFGGGTKVTVL | y |
| ADI-21072 (antibody, V domains shown) VH: QVQLVQSGGGLVKPGGSLRLSCEASGFNFRSYHMSWVRQAPGKGLEWVSSITAGSSYINYADSVKGRFTISRDNAKNSVFLQMNSLSAEDTAVYYCAREGLNMGVGGTWFDPWGQGTLVTVSS VL: QAVVTQEPSVSGAPGQRVTISCTGSSSNIGAGYDVHWYQQLPGTAPKLLIYGNNNRPSGVPDRFSGSKSATSASLAITGLQADDEADYYCQSYDRSLSGSWVFGTGTKVTVL | y |
| ADI-21086 (antibody, V domains shown) VH: EVQLVETGGGLVKPGGSLRLSCAASPFAFSNYYMSWIRQAPGKGLEWISNISGGSTFTNYADSVKGRFTISRDNARNSLYLLMNNLRTEDTAVYYCAREASVAAGTPEGFDVWGQGTTVTVSS VL: QSVVTQPPSVSGAPGQRVTISCTGSSSNIGAGYDVNWYQQFPGTAPKLLIYGNRNRPSGVPARFSGSKSGASASLAITGLQAEDEADYYCHSYDSGLSGSVFGGGTKLTVL | n |

Q: Quick check: does ADI-21089 (antibody, V domains shown) VH: EVQLLESGGGLVKPGGSLRLSCVASGFRFTSYSMNWVRQAPGKGLEWVSSISASSSYVDYADSLKGRFTISRDNAQNSLFLQMNSLRAEDTAVYYCARDYYDSGNYHSPFPMDVWGQGTTVTVSS VL: QSVLTQPPSVSGAPGQRVTISCTGSRSNIGAGYDVHWYQQLPGTAPKLLIYGNNKRPSGVPDRFSGSKSGTSASLAITGLQAEDEADYYCQSYDSGPIFGGGTKVTVL have Neut IC50 (ug/ml) subtype A under 0.1 µg/mL?
Result: n

Just for reference, patent US20260258115A1 is where these values come from.
